PROTOCOL_SUMMARY: Animal biodistribution (in vivo, i.v. injection)
SETUP_CONDITIONS: rats, 2 min p.i.
ASSAY_READOUT: Heart, % injected dose/organ (% injected dose/organ)
Answers are plain numbers, in % injected dose/organ.

{"columns": ["COMPOUND", "ASSAY_READOUT", "UNIT_TAG", "MEAS_VALUE"],
 "data": [
  ["CP(C)CCP(C)C.CP(C)CCP(C)C.N#[O+].[99Tc+].[Cl-].[Cl-]", "Heart, % injected dose/organ", "% injected dose/organ", 0.46],
  ["O=[N][Tc+][Cl].[C-]#[N+]C(C)(C)C.[C-]#[N+]C(C)(C)C.[C-]#[N+]C(C)(C)C.[C-]#[N+]C(C)(C)C [[^99 Tc(NO)Cl(t-BuCN)4]^+]", "Heart, % injected dose/organ", "% injected dose/organ", 1.09],
  ["O=[N][99Tc]([Cl])([Cl])[Cl].c1ccc(-c2ccccn2)nc1 [[^99 Tc(NO)Cl3 (Bipy)]]", "Heart, % injected dose/organ", "% injected dose/organ", 0.32],
  ["CC(=O)C=C(C)[O][99Tc-]([Cl])([Cl])([Cl])[N]=O [[^99 Tc(NO)Cl3 (acac)]^-]", "Heart, % injected dose/organ", "% injected dose/organ", 0.56],
  ["O=[N][99Tc-]([Cl])([Cl])([Cl])[Cl] [[^99m TcNOCl4]^-]", "Heart, % injected dose/organ", "% injected dose/organ", 0.55]
]}

compound O=[N][99Tc]1([Cl])([Cl])([Cl])[N]2C=CC=c3ccc4c(c32)[N]1C=CC=4 [[^99 Tc(NO)(1,10 phen)Cl3]°] , Heart, % injected dose/organ observed: 0.40

Where do these numbers come from? They come from patent US5081232A.
